# Test Description: Half life of compound was determined in man with once daily dosing
# Assay type: ADME
# Run Parameters: human
Recorded Metric: half-life (h)
Answers are plain numbers, in h.

Input: # half-life lookup, item CCCCCCCCCCNCCN[C@@]1(C)C[C@H](O[C@H]2[C@H](Oc3c4cc5cc3Oc3ccc(cc3Cl)[C@@H](O)[C@@H](NC(=O)[C@@H](CC(C)C)NC)C(=O)N[C@@H](CC(N)=O)C(=O)N[C@H]5C(=O)N[C@H]3C(=O)N[C@H](C(=O)N[C@H](C(=O)O)c5cc(O)c(CNCP(=O)(O)O)c(O)c5-c5cc3ccc5O)[C@H](O)c3ccc(c(Cl)c3)O4)O[C@H](CO)[C@@H](O)[C@@H]2O)O[C@@H](C)[C@H]1O
Output: 7
